Where these numbers come from: ChEMBL document CHEMBL2086321

Test System: Transient receptor potential cation channel subfamily A member 1 (Rattus norvegicus)
Sequence (Q6RI86 whole entry): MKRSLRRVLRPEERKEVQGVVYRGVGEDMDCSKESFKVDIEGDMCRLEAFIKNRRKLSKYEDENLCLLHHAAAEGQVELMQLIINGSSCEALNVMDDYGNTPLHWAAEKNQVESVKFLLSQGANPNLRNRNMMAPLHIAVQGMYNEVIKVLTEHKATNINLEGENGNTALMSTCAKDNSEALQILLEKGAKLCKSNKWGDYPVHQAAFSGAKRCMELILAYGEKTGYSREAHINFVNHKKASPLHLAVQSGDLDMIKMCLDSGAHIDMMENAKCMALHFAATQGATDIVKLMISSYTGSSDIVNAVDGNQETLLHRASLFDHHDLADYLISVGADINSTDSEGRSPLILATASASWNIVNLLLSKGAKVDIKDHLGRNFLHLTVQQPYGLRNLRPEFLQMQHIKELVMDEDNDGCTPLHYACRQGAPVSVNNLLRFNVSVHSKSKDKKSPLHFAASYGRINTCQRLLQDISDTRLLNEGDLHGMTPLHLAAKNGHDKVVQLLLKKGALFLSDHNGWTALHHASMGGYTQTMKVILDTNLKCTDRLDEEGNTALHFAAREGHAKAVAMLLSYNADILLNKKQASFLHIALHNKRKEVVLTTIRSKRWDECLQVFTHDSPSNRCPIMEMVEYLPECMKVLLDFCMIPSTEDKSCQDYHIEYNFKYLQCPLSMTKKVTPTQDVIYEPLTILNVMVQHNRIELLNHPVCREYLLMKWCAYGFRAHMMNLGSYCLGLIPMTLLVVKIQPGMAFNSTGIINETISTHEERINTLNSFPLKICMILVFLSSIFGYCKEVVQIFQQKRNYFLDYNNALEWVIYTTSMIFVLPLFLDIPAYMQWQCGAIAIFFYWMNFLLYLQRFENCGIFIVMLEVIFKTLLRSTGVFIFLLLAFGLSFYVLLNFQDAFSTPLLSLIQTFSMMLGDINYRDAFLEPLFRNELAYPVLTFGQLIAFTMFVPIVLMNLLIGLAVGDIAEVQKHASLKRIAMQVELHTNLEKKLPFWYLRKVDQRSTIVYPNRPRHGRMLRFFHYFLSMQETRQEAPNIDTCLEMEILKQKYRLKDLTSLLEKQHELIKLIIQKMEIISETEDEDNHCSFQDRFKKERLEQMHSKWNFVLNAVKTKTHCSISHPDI
Experiment: Activation of rat TRPA1 expressed in HEK293 cells assessed as stimulation of intracellular Ca2+ levels
pEC50: −log10 of the molar value.
Parameter: pEC50

>>> meas_value("Cc1ccc(C(C)C)c(NC(=O)Nc2ccc(-c3ccccc3)cc2)c1")
4.49
>>> meas_value("Cc1ccc(C(C)C)c(NC(=O)Cc2ccc(-c3ccccc3)cc2)c1")
5.19
>>> meas_value("Cc1ccc(C(C)C)c(O)c1")
3.54
>>> meas_value("COc1ccc(NC(=O)Oc2cc(C)ccc2C(C)C)cc1")
5.13
>>> meas_value("COc1ccc(C(=O)Nc2cc(C)ccc2C(C)C)cc1")
4.34

P. Cc1ccc(C(C)C)c(NC(=O)Nc2ccc(C(C)(C)C)cc2)c1
Q. COc1ccc(NC(=O)Nc2cc(C)ccc2C(C)C)cc1
Of P and Q , which shows the smaller pEC50 value? Use the label to indicate which entry you chose. Q

a. Cc1ccc(C(C)C)c(OC(=O)c2ccc(-c3ccccc3)cc2)c1
b. Cc1ccc(C(C)C)c(C(=O)Nc2ccc(C(C)(C)C)cc2)c1
Lab note: record which item had the higher pEC50, a or b . Use the label to indicate which entry you chose. b
(b: 6.22, a: 5.48)

a. COc1ccc(OC(=O)c2cc(C)ccc2C(C)C)cc1
b. Cc1ccc(C(C)C)c(NC(=O)c2ccc(C(C)(C)C)cc2)c1
Lab note: record which item had the higher pEC50, a or b . Use the label to indicate which entry you chose. a

---

Test System: Transient receptor potential cation channel subfamily A member 1 (Rattus norvegicus)
Experiment: Activation of rat TRPA1 expressed in HEK293 cells assessed as stimulation of intracellular Ca2+ levels relative to 100 uM allyl isothiocyanate
Type: cell-based
Parameter: Efficacy (%)

A. Cc1ccc(C(C)C)c(N)c1
B. Cc1ccc(C(C)C)c(C(=O)Nc2ccc(C(C)(C)C)cc2)c1
Of A and B , which shows the smaller Efficacy value? Use the label to indicate which entry you chose. A
(A: 57.4%, B: 97.9%)

A. Cc1ccc(C(C)C)c(NC(=O)Cc2cccc(I)c2)c1
B. Cc1ccc(C(C)C)c(C(=O)Nc2ccc(C(F)(F)F)cc2)c1
Lab note: record which item had the higher Efficacy, A or B . Use the label to indicate which entry you chose. A

a. Cc1ccc(C(C)C)c(C(=O)Oc2ccc(-c3ccccc3)cc2)c1
b. COc1ccc(NC(=O)Nc2cc(C)ccc2C(C)C)cc1
Lab note: record which item had the higher Efficacy, a or b . Use the label to indicate which entry you chose. a

---

Test System: Transient receptor potential cation channel subfamily M member 8 (Rattus norvegicus, UniProt Q8R455)
Sequence (Q8R455 whole entry): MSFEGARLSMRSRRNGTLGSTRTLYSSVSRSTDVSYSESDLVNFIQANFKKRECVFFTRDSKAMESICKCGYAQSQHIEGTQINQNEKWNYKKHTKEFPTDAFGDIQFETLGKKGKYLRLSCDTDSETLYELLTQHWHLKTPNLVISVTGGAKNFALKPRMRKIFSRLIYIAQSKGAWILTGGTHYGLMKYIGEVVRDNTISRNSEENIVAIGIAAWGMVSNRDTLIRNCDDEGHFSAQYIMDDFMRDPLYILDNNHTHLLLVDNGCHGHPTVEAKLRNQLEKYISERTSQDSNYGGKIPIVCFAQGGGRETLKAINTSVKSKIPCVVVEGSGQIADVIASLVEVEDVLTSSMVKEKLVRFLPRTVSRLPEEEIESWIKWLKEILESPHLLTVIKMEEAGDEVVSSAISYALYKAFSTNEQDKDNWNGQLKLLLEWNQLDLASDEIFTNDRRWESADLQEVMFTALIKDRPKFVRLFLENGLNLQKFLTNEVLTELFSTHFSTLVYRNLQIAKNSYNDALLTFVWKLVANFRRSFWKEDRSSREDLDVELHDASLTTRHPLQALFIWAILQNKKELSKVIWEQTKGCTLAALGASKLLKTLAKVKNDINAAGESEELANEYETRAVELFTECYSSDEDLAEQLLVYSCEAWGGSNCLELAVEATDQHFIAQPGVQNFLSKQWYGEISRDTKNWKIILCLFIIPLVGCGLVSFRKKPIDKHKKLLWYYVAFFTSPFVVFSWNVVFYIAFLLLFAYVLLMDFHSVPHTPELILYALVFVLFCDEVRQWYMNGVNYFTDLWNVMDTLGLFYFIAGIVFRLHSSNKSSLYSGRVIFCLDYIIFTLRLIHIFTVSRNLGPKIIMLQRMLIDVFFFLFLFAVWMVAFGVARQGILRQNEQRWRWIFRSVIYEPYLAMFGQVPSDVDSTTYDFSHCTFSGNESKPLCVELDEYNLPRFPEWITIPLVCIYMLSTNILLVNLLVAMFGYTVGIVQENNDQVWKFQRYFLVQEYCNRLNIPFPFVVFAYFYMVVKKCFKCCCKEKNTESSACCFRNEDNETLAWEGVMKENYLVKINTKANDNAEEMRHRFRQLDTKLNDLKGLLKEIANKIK
Experiment: Inhibition of rat TRPM8 expressed in HEK293 cells assessed as reduction in 20 uM menthol-stimulated increase in intracellular Ca2+ levels
Format: cell-based
pIC50: −log10 of the molar value.
Quick reference: pIC50 of the listed items.

>>> meas_value("Cc1ccc(C(C)C)c(C(=O)Oc2ccc(-c3ccccc3)cc2)c1")
"< 4.00"

Query (molecule): `Cc1ccc(C(C)C)c(OC(=O)Cc2ccc(-c3ccccc3)cc2)c1` ; field requested: pIC50 < 4.00

Query (molecule): `COc1ccc(NC(=O)Oc2cc(C)ccc2C(C)C)cc1` ; field requested: pIC50 5.28

---

Test System: Transient receptor potential cation channel subfamily A member 1 (Rattus norvegicus)
Experiment: Inhibition of rat TRPA1 expressed in HEK293 cells assessed as reduction in 100 uM allyl isothiocyanate-stimulated increase in intracellular Ca2+ levels
pIC50: −log10 of the molar value.
Parameter: pIC50

>>> meas_value("Cc1ccc(C(C)C)c(NC(=O)Cc2ccc(-c3ccccc3)cc2)c1")
5.41
>>> meas_value("Cc1ccc(C(C)C)c(NC(=O)Oc2ccc(C(F)(F)F)cc2)c1")
5.39
>>> meas_value("Cc1ccc(C(C)C)c(O)c1")
3.90

P. Cc1ccc(C(C)C)c(NC(=O)Nc2ccc(-c3ccccc3)cc2)c1
Q. Cc1ccc(C(C)C)c(NC(=O)Oc2ccc(C(C)(C)C)cc2)c1
R. Cc1ccc(C(C)C)c(OC(=O)c2ccc(-c3ccccc3)cc2)c1
Order the records, beginning with the lowest pIC50 and ending with the highest. API: response body holds the labels in the requested order. P, R, Q
(P: 4.55, R: 5.26, Q: 6.11)

P. Cc1ccc(C(C)C)c(C(=O)Nc2ccc(C(C)(C)C)cc2)c1
Q. Cc1ccc(C(C)C)c(N)c1
R. Cc1ccc(C(C)C)c(NC(=O)Cc2cccc(I)c2)c1
Sort the 3 compounds by pIC50; largest first, smallest last. API: response body holds the labels in the requested order. P, R, Q
(P: 6.08, R: 4.36, Q: 3.67)

---

Tested on: HEK293
Experiment: Activation of rat TRPV3 expressed in HEK293 cells assessed as stimulation of intracellular Ca2+ levels relative to 4 uM ionomycin
Type: cell-based
Quick reference: Efficacy of the listed items.
Lab book: enter the figure in %, no units written.

See these solved cases before continuing.
>>> meas_value("Cc1ccc(C(C)C)c(OC(=O)Cc2ccc(-c3ccccc3)cc2)c1")
52.7
>>> meas_value("Cc1ccc(C(C)C)c(C(=O)Nc2ccc(Cl)cc2)c1")
43.4
>>> meas_value("Cc1ccc(C(C)C)c(NC(=O)Oc2ccc(C(C)(C)C)cc2)c1")
62.5

Query (molecule): `Cc1ccc(C(C)C)c(NC(=O)Nc2ccc(-c3ccccc3)cc2)c1` ; field requested: Efficacy 16.9

Query (molecule): `Cc1ccc(C(C)C)c(C(=O)Nc2ccc(C(C)(C)C)cc2)c1` ; field requested: Efficacy 36.5

Query (molecule): `Cc1ccc(C(C)C)c(C(=O)Nc2ccc(C(F)(F)F)cc2)c1` ; field requested: Efficacy 22.1

Query (molecule): `Cc1ccc(C(C)C)c(NC(=O)Nc2ccc(C(C)(C)C)cc2)c1` ; field requested: Efficacy 31.6

Query (molecule): `COc1ccc(C(=O)Oc2cc(C)ccc2C(C)C)cc1` ; field requested: Efficacy 23.1

Query (molecule): Cc1ccc(C(C)C)c(O)c1 [THYMOL] ; field requested: Efficacy 34.7

Query (molecule): `Cc1ccc(C(C)C)c(NC(=O)c2ccc(C(C)(C)C)cc2)c1` ; field requested: Efficacy 34.8

Query (molecule): `Cc1ccc(C(C)C)c(NC(=O)Cc2cccc(I)c2)c1` ; field requested: Efficacy 15

Query (molecule): `Cc1ccc(C(C)C)c(OC(=O)c2ccc(-c3ccccc3)cc2)c1` ; field requested: Efficacy 33.8

Query (molecule): `Cc1ccc(C(C)C)c(NC(=O)Cc2ccc(-c3ccccc3)cc2)c1` ; field requested: Efficacy 39.3

---

Test System: Transient receptor potential cation channel subfamily A member 1 (Rattus norvegicus)
Experiment: Activation of rat TRPA1 expressed in HEK293 cells assessed as stimulation of intracellular Ca2+ levels relative to 100 uM allyl isothiocyanate
Format: cell-based
Parameter: Efficacy (%)

>>> meas_value("Cc1ccc(C(C)C)c(NC(=O)Cc2ccc(-c3ccccc3)cc2)c1")
212
>>> meas_value("Cc1ccc(C(C)C)c(NC(=O)Nc2ccc(C(C)(C)C)cc2)c1")
235
>>> meas_value("Cc1ccc(C(C)C)c(OC(=O)Cc2ccc(-c3ccccc3)cc2)c1")
226
>>> meas_value("COc1ccc(NC(=O)Oc2cc(C)ccc2C(C)C)cc1")
264

---

Test System: UniProt Q6RI86
Experiment: Activation of rat TRPA1 expressed in HEK293 cells assessed as stimulation of intracellular Ca2+ levels relative to 100 uM allyl isothiocyanate
Assay type: cell-based
Parameter: Efficacy (%)

>>> meas_value("COc1ccc(C(=O)Nc2cc(C)ccc2C(C)C)cc1")
149
>>> meas_value("Cc1ccc(C(C)C)c(NC(=O)Oc2ccc(C(F)(F)F)cc2)c1")
178
>>> meas_value("COc1ccc(C(=O)Oc2cc(C)ccc2C(C)C)cc1")
149
>>> meas_value("COc1ccc(OC(=O)c2cc(C)ccc2C(C)C)cc1")
194
